system: K562 CRISPRi cells; test: Perturb-seq pooled growth measurement (sgRNA counts, growth phenotype γ, relative activity); assay type: cell-based, human; conditions: sequencing read counts; 5 days of growth (day seven after transduction)
experimental-endpoint: Perturb-seq pooled growth sgRNA counts, d5
Write the number on its own, no unit after it.

Consider the reported Perturb-seq pooled growth sgRNA counts, d5 for these substances:
BCR_+_23523092.23-P1P2_13: sgRNA targeting BCR, GCGCGCGGGGCCCATCTCAG, SEQ ID NO: 130 (listed as DNA, chemistry not fully specified)    5668
RPS18_+_33239917.23-P1P2_04: sgRNA targeting RPS18, GCTGCGATCCCGCTGGATCA, SEQ ID NO: 44 (listed as DNA, chemistry not fully specified)    9728
DBR1_+_137893744.23-P1P2_08: sgRNA targeting DBR1, GTTTGCAGTAGTCTACACCC, SEQ ID NO: 82 (listed as DNA, chemistry not fully specified)    11651
GATA1_−_48645022.23-P1P2_08: sgRNA targeting GATA1, GTGAGCTTTCCACATCCCCA, SEQ ID NO: 122 (listed as DNA, chemistry not fully specified)    2043
GATA1_−_48645022.23-P1P2_03: sgRNA targeting GATA1, GTGCGCTTGCCACATCCCCA, SEQ ID NO: 120 (listed as DNA, chemistry not fully specified)    1927
POLR2H_+_184081251.23-P1P2_12: sgRNA targeting POLR2H, GGGGCCACGAGAGCAGGAGA, SEQ ID NO: 117 (listed as DNA, chemistry not fully specified)    4854
RPL9_+_39460483.23-P1P2_00: sgRNA targeting RPL9, GGATGTTTCTGTGCTCGTGG, SEQ ID NO: 5 (listed as DNA, chemistry not fully specified)    1141
HSPA9_−_137911079.23-P1P2_04: sgRNA targeting HSPA9, GGAGCTGCGCAATGCGGTGG, SEQ ID NO: 135 (listed as DNA, chemistry not fully specified)    9346

The reported value for POLR1D_+_28196016.23-P1_00: sgRNA targeting POLR1D, GGGAAGCAAGGACCGACCGA, SEQ ID NO: 11 (listed as DNA, chemistry not fully specified) in terms of Perturb-seq pooled growth sgRNA counts, d5 is 3429

The reported value for HSPA5_+_128003624.23-P1P2_08: sgRNA targeting HSPA5, GAGCCGAGTGGGCGACGGTG, SEQ ID NO: 90 (listed as DNA, chemistry not fully specified) in terms of Perturb-seq pooled growth sgRNA counts, d5 is 3005

Reference for the values: patent US20220259593A1
